# measurement description: counter assay for TAg ATPase ADP read-out – biochemical, ADP-Hunter, fluorescence, counter-screen (AID 2501);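 note: purified T antigen ATPase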
# condition set: series mostly up to 100 µM
Out of some 2,200 compounds screened, about 1,200 (55%) were called active. No cut-off is given here; in the data, nearly all actives have IC50 up to about 92 µM. So high a share suggests a set chosen from earlier hits. This is one part of the list.
Pick one and only one: y (active), n (inactive)

Hi, sorry to bother you, what did the test record for COc1cc(/C=N/NC(=O)c2cccc([N+](=O)[O-])c2)ccc1O ? y

Dear colleague, could you share the recorded outcome for CN1CSC2=C(C#N)C(c3cccc(OCc4ccccc4)c3)CC(=O)N2C1 (stereo unspecified) when you have a moment? y

Just curious, what result did O=C1CC(c2ccccc2)c2cccc(F)c21 (stereo unspecified) get here? n

For COc1ccccc1N1CSC2=C(C#N)C(c3ccc(SC)cc3)CC(=O)N2C1 (stereo unspecified) , what call appears in the results of this test? y

Look up the recorded call for O=C(CN1C(=O)S/C(=C\C=C\c2ccccc2)C1=O)Nc1ccc(C(=O)O)cc1 in this test. n
